src = patent US8906967B2

- Test system: Clostridium perfringens ATCC 13124
- Format: cell-based
- condition.info: 100 ppm sesquiterpene, 37° C., culture broth
experimental.readout: growth of Clostridium perfringens

Please review the entries below; each comes with its answer.
CC1=CC[C@@]23[C@@H]([C@@H]12)[C@H](C(C)C)CC[C@H]3C ... −
C[C@@H]1CC[C@@H]2[C@@H]1[C@H]1[C@@H](CC[C@]2(C)O)C1(C)C [(−) epiglobulol] ... −
CC(C)=C1C/C=C(\C)CC/C=C(\C)CC1=O ... −
CC1=CC[C@H]2[C@H]3[C@@H]1[C@]2(C)CC[C@H]3C(C)C ... −
C=C1CC[C@@H]2[C@H]([C@@H]3[C@H](C)CC[C@@H]13)C2(C)C ... −

Value of growth of Clostridium perfringens reported for the compound CC1=C2CC[C@@H](C)[C@H]2[C@H]2[C@@H](CC1)C2(C)C [(+) ledene] is −

Sample C=C1CC/C=C(\C)CC[C@@H]2[C@@H]1CC2(C)C ; growth of Clostridium perfringens observed: −

Entry C=C1CC[C@@H]2[C@H]([C@@H]3[C@H](C)CC[C@H]13)C2(C)C ; growth of Clostridium perfringens = −

What the record says about C[C@@H]1CC[C@@H]2[C@H](C3=C1CC[C@H]3C)C2(C)C [(−) iso-ledene] : growth of Clostridium perfringens is −
